Recorded Ratio for the following compounds
target-or-system: Cathepsin B (Homo sapiens) (UniProt P07858)
protocol-description: Ratio of second order rate constant of calpain I to that of cathepsinB
Residues, ends and D or L forms follow the SMILES beside them. *: point of attachment. Cbz = O=C(OCc1ccccc1)*; CH2F = FC*

- compound: "CCC(NC(=O)C(CC(C)C)NC(=O)OCc1ccccc1)C(=O)COn1nnc2ccccc21 (stereo not given)"
  Ratio: 0.14
- compound: "CC(C)CC(NC(=O)OCc1ccccc1)C(=O)NC(Cc1ccccc1)C(=O)COn1nnc2cccnc21 (stereo not given)"
  Ratio: 1.7
- compound: "CC(C)CC(NC(=O)OCc1ccccc1)C(=O)NC(Cc1ccccc1)C(=O)CF (stereo not drawn) (Cbz-Leu-Phe-CH2F; configuration not given here)"
  Ratio: 454
- compound: "CC(C)CC(NC(=O)OCc1ccccc1)C(=O)NC(Cc1ccccc1)C(=O)COn1nnc2ccccc21 (stereo in doubt; 1d)"
  Ratio: 2.7
- compound: "CC(C)CC(NC(=O)OCc1ccccc1)C(=O)NC(Cc1ccccc1)C(=O)CON1C(=O)C2C3C=CC(C3)C2C1=O (stereo not given)"
  Ratio: 0.14

* * *

target-or-system: Calpain-1 catalytic subunit (Homo sapiens) (UniProt P07384)
Sequence (P07384 whole entry): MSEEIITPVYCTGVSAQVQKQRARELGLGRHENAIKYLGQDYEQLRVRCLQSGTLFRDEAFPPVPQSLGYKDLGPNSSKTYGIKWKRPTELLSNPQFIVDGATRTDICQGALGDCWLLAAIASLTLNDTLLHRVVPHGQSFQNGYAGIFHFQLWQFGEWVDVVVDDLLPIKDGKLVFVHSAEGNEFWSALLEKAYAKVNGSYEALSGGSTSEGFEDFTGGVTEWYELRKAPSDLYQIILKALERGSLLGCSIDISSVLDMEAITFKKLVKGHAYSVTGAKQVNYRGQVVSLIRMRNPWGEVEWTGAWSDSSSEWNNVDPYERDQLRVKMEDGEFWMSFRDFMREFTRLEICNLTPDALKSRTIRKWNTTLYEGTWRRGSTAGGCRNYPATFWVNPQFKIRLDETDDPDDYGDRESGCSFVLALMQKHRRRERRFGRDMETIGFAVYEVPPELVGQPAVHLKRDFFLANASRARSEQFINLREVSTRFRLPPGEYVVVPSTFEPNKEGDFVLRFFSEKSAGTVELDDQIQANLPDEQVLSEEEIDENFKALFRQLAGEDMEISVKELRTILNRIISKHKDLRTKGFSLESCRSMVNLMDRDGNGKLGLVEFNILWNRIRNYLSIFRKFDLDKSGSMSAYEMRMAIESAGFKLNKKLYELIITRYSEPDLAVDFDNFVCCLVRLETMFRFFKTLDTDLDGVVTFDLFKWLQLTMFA
protocol-description: Second order rate constant for inactivation of recombinant human Calpain 1 was reported
Residues, ends and D or L forms follow the SMILES beside them. *: point of attachment. Cbz = O=C(OCc1ccccc1)*; CH2F = FC*

- compound: "CC(C)CC(NC(=O)OCc1ccccc1)C(=O)NC(CC(C)C)C(=O)NC(Cc1ccccc1)C(=O)COn1nnc2ccccc21 (centres undefined)"
  target-or-system: "Calpain-1 catalytic subunit (Homo sapiens) (UniProt P07384)"
  K obs / 1, M⁻¹ s⁻¹: 524000
- compound: "CC(C)CC(NC(=O)OCc1ccccc1)C(=O)NC(Cc1ccccc1)C(=O)CF (stereo not drawn) (Cbz-Leu-Phe-CH2F; configuration not given here)"
  target-or-system: "Calpain-1 catalytic subunit (Homo sapiens) (UniProt P07384)"
  K obs / 1, M⁻¹ s⁻¹: 136000
- compound: "CC(C)CC(NC(=O)OCc1ccccc1)C(=O)NC(Cc1ccccc1)C(=O)COn1nnc2cccnc21 (centres undefined)"
  target-or-system: "Calpain-1 catalytic subunit (Homo sapiens) (UniProt P07384)"
  K obs / 1, M⁻¹ s⁻¹: 184000
- compound: "CC(C)CC(NC(=O)OCc1ccccc1)C(=O)NC(Cc1ccccc1)C(=O)COn1nnc2ccccc21 (stereo in doubt; 1d)"
  target-or-system: "Calpain-1 catalytic subunit (Homo sapiens) (UniProt P07384)"
  K obs / 1, M⁻¹ s⁻¹: 320000

* * *

target-or-system: Cathepsin B (Homo sapiens) (UniProt P07858)
protocol-description: Second order rate constant for inactivation of human liver cathepsin B was reported
Residues, ends and D or L forms follow the SMILES beside them. *: point of attachment. Cbz = O=C(OCc1ccccc1)*; CH2F = FC*
Field 'label' (enum: Condition met / Condition not met). Set to Condition met when K obs / 1 is strictly under 100000 M⁻¹ s⁻¹; else Condition not met.

- compound: "CC(C)CC(NC(=O)OCc1ccccc1)C(=O)NC(Cc1ccccc1)C(=O)CON1C(=O)C2C3C=CC(C3)C2C1=O (stereo not given)"
  cat: "Condition met"
- compound: "CC(C)CC(NC(=O)OCc1ccccc1)C(=O)NC(Cc1ccccc1)C(=O)COn1nnc2cccnc21 (stereo not given)"
  cat: "Condition not met"
- compound: "CC(C)CC(NC(=O)OCc1ccccc1)C(=O)NC(Cc1ccccc1)C(=O)COn1nnc2ccccc21 (stereo in doubt; 1d)"
  cat: "Condition not met"
- compound: "CC(C)CC(NC(=O)OCc1ccccc1)C(=O)NC(Cc1ccccc1)C(=O)CF (stereo not drawn) (Cbz-Leu-Phe-CH2F; configuration not given here)"
  cat: "Condition met"
- compound: "CCC(NC(=O)C(CC(C)C)NC(=O)OCc1ccccc1)C(=O)COn1nnc2ccccc21 (stereo not given)"
  cat: "Condition not met"
